test: Quantitative High-Throughput drug screen in 47 multiple myeloma cell lines against the NCATS MIPE library collection: OPM2_DSMZ cell viability assay (AID 1919872); conditions: OPM2 myeloma viability, CellTiter-Glo ATP luminescence, 48 h; series mostly up to 45.8 µM; also: nearly all actives have a fitted effect of over 30% in size
Inconclusive results are not listed. Active and inactive are the calls of the source. Calls follow the shape of the dose curve; as a rule, active = well fitted cell-killing curve with a large enough effect; inconclusive = small, poorly fitted or top-dose-only effect, or effect the other way; inactive = no such curve, though single readings can be large or run the other way.
Possible outcomes: active, inactive

molecule	label_class
COc1c(C)c2c(c(O)c1CC=C(C)CCC(=O)O)C(=O)OC2	active
O=C(O)CCNc1cc(N2CCc3ccccc3CC2)nc(-c2ccccn2)n1	inactive
CC[C@]1(O)C[C@H]2CN(CCC3=c4ccccc4=N[C]3[C@@](C(=O)OC)(c3cc4c(cc3OC)N(C)[C@H]3[C@@](O)(C(N)=O)[C@H](O)[C@]5(CC)C=CCN6CC[C@]43[C@@H]65)C2)C1	active
CC[C@H](C)C(=O)O[C@H]1C[C@H](O)C=C2C=C[C@H](C)[C@H](CC[C@@H](O)C[C@@H](O)CC(=O)O)[C@H]21	inactive
C#CCN(C)CC1=Cc2ccccc2Oc2ccccc21	inactive
CNC(=O)c1ccc2c(C(=Nc3cccc(CN(C)C)c3)c3ccccc3)c(O)[nH]c2c1	inactive
C[C@@H]1CCO[C@H]2Cn3cc(C(=O)NCc4ccc(F)cc4F)c(=O)c(O)c3C(=O)N12	inactive
Cc1cc(C(C)Nc2ccccc2)c2nc(N3CCOCC3)cc(=O)n2c1 (centres undefined)	inactive
O=C(O)C1=CC(O)C(O)[C@H](O)C1 (some centres undefined)	inactive

* * *

experiment: Quantitative High-Throughput drug screen in 47 multiple myeloma cell lines against the NCATS MIPE library collection: PCM6_Riken cell viability assay (AID 1919870); settings: CellTiter-Glo ATP, 48 h; series mostly up to 45.8 µM; also: nearly all actives have a fitted effect of over 30% in size
Results filed as inconclusive are left out. Active and inactive are the calls of the source. Calls follow the shape of the dose curve; as a rule, active = well fitted cell-killing curve with a large enough effect; inconclusive = small, poorly fitted or top-dose-only effect, or effect the other way; inactive = no such curve, though single readings can be large or run the other way.
Possible outcomes: Yes = active, No = inactive

compound	label_class
Cc1cnc(Nc2cccc(CN3CCOCC3)c2)nc1Nc1cccc(S(=O)(=O)NC(C)(C)C)c1	Yes
CC(=O)N1CCN(c2ccc(OCc3nn(C)c(C)c3-c3cccc4c(CCCOc5cc(C)c(Cl)c(C)c5)c(C(=O)O)n(Cc5cccnc5)c34)cc2)CC1	Yes
O=C(NCCCCN1CCOCC1)c1cc2ccccc2o1	No
O=C(CC12CC3CC(CC(C3)C1)C2)Nc1cccc2nc(NCCNCCO)ccc12	Yes
CC1=C(C(=O)Nc2cc3cn[nH]c3cc2F)C(c2ccc(C(F)(F)F)cc2)CC(=O)N1 (centres undefined)	Yes
COc1ccc(-c2cc3nccn3c(Nc3ncccc3C(N)=O)n2)cc1OC	Yes
Cc1ccc(C(=O)N(CCCN)[C@@H](c2nc3cc(Cl)ccc3c(=O)n2Cc2ccccc2)C(C)C)cc1	Yes
Cc1ccccc1-n1c(Cn2nc(-c3cccc(O)c3)c3c(N)ncnc32)nc2cccc(C)c2c1=O	Yes
CC(C)c1c(C(=O)Nc2ccccc2)c(-c2ccccc2)c(-c2ccc(F)cc2)n1CC[C@H](O)C[C@@H](O)CC(=O)O	Yes
COc1nc(C)cnc1NS(=O)(=O)c1cccnc1-c1ccc(-c2nnco2)cc1	No
O=C(Nc1cccc(Cl)c1)Nc1ncc(CCNc2ncnc3ccsc23)s1	Yes
CCC(C)SSc1ncc[nH]1 (centres undefined)	Yes
CCNC(=O)c1noc(-c2cc(C(C)C)c(O)cc2O)c1-c1ccc(CN2CCOCC2)cc1	Yes
CCNC(=O)CCCC=CC[C@@H]1[C@H](C=CC(O)CCc2ccccc2)[C@@H](O)C[C@@H]1O (some centres undefined)	No
Cc1nc(NC(=O)N2CCC[C@@H]2C(N)=O)sc1-c1csc(C(C)(C)C)n1	Yes
c1cc(OCCN2CCCCC2)cc(-c2n[nH]c3ccc(-c4ncn[nH]4)cc23)c1	Yes
CN1CCN(c2cccc(Nc3nc4c(-c5ccc(S(C)(=O)=O)cc5)cccn4n3)c2)CC1	Yes
Cc1cnc(-c2cc(N3CCN(C(=O)CCS(C)(=O)=O)CC3)ncc2Cl)c(C)c1	No
CNc1nc(Nc2ccc(C(=O)N3CCOCC3)cc2OC)ncc1Cl	Yes

* * *

test: qHTS drug screen for cell cycle checkpoint inhibitors in PARPi-resistant BRCA-mutant ovarian cancer cell lines. (AID 1963452); conditions: PEO1/OlaR viability, CellTiter-Glo luminescence, 96 h; measured here: PEO1 parental Z-AUC; stronger effect = lower value
# thresholds on Z-AUC define classes: class 1: < 0.3; class 2: ≥ 0.3 and < 1; class 3: ≥ 1

mol	label_class
Cc1cccc(Nc2nc(N[C@@H]3CCCC[C@H]3N)ncc2C(N)=O)c1	class 1
CC(C)(F)C[C@H](N[C@@H](c1ccc(-c2ccc(S(C)(=O)=O)cc2)cc1)C(F)(F)F)C(=O)NC1(C#N)CC1	class 3
C[C@@H](N)c1ccc(C(=O)Nc2ccnc3[nH]ccc23)cc1	class 2
O=C(O)CCC=CCC[C@@H]1[C@H](N2CCCCC2)[C@@H](O)C[C@@H]1OCc1ccc(-c2ccccc2)cc1	class 1
COc1cc2c(cc1Cc1cccc(Cl)c1F)c(=O)c(C(=O)O)cn2[C@H](CO)C(C)C	class 2
Cc1nc2c([nH]1)CCN(C(=O)c1ccc(NC(=O)c3ccccc3-c3ccccc3)cc1)c1ccccc1-2	class 2
Cc1cnc(-c2cc(N3CCN(C(=O)CCS(C)(=O)=O)CC3)ncc2Cl)c(C)c1	class 3

* * *

test: Quantitative High-Throughput drug screen in 47 multiple myeloma cell lines against the NCATS MIPE library collection: MM1S_ATCC cell viability assay (AID 1918980); conditions: MM1S myeloma viability, CellTiter-Glo ATP luminescence, 48 h; series mostly up to 45.8 µM; also: nearly all actives have a fitted effect of over 45% in size
Results filed as inconclusive are left out. The source made the active and inactive calls. The call rests on the fitted dose curve; in most records, active means well fitted cell-killing curve with a large enough effect; inconclusive means small, poorly fitted or top-dose-only effect, or effect the other way; inactive means no such curve, though single readings can be large or run the other way.
Possible outcomes: active, inactive

compound	label_class
CC1=C[C@@H]2[C@@H]([C@@H](O)C[C@@]3(C)[C@H]2C[C@@H](C)[C@]3(O)C(=O)CO)[C@@]2(C)Cc3cnn(-c4ccccc4)c3C=C12	active
OC1CCC(Nc2ncc3nc(Nc4c(F)cc(F)cc4F)n([C@@H]4CCOC4)c3n2)CC1 (some centres undefined)	active
CO[C@H]1C=CO[C@@]2(C)Oc3c(C)c(O)c4c(O)c(c(C=NN5CCN(C)CC5)c(O)c4c3C2=O)NC(=O)C(C)=CC=C[C@H](C)[C@H](O)[C@@H](C)[C@@H](O)[C@@H](C)[C@H](OC(C)=O)[C@H]1C	inactive
Cc1cccc(-c2[nH]c(C(C)(C)C)nc2-c2ccc3c(c2)OCO3)n1	active

* * *

experiment: Cell Proliferation Assay against the TMD8 Cell Line (AID 651645); conditions: TMD8 DLBCL cell line proliferation/viability; at 46.1 µM (top of the series);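 also: cells exposed to compound for 48 h before reading; 100% = DMSO and 0% = 9.2 µM bortezomib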

molecule	viability (% of control) (%)
Cc1nn(Cc2ccccc2Cl)c(C)c1CN(C)CC(O)COc1ccc(Cl)cc1 (configuration not stated)	9.51
COC(=O)Nc1ccc(-c2nc(N3CCOCC3)c3cnn(C4CCN(C(=O)OC)CC4)c3n2)cc1	32.2
CNC(=O)c1cc(Oc2ccc(NC(=O)Nc3ccc(Cl)c(C(F)(F)F)c3)c(F)c2)ccn1	3.02
CC(C)Oc1cc(Nc2nc(N[C@@H](C)c3ccc(F)cn3)ncc2Cl)[nH]n1	0.843
CCOC(=O)[C@@H](N)CCC(=O)N[C@@H](CSCc1ccccc1)C(=O)N[C@@H](C(=O)OCC)c1ccccc1	62.4
Cc1cc2c(cc1C1(c3ccc(C(=O)O)cn3)CC1)C(C)(C)CCC2(C)C	79.3
Cc1cccc(Nc2nc(N[C@@H]3CCCC[C@H]3N)ncc2C(N)=O)c1	2.81

* * *

Test: Quantitative High-Throughput drug screen in 47 multiple myeloma cell lines against the NCATS MIPE library collection: MM1R_ATCC cell viability assay (AID 1918981); also: nearly all actives have a fitted effect of over 35% in size
Settings: MM1R multiple myeloma cells, CellTiter-Glo viability, 48 h; series mostly up to 45.8 µM
From the text: PI: Beverly A. Mock Ph.D. Laboratory of Cancer Biology and Genetics, Center for Cancer Research, National Cancer Institute, National Institute of Health, Bethesda, Maryland […] 5; Detector; 425V; Luminescence; Viewlux PerkinElmer. […] 1. […] Briefly, the corresponding myeloma cell lines were screened in 1,536-well plates with 500 cells, 5-uL per well for inhibition of cell viability (assessed by measuring ATP levels with CellTiterGlo). […]
Inconclusive results are not listed. Calls of active or inactive are those of the source. Calls come from the whole dose curve; as a rule, active = well fitted cell-killing curve with a large enough effect; inconclusive = small, poorly fitted or top-dose-only effect, or effect the other way; inactive = no such curve, though single readings can be large or run the other way.
Possible outcomes: y for active, n for inactive

molecule	label_class
CN(C(Cc1ccc(OS(=O)(=O)c2cccc3cnccc23)cc1)C(=O)N1CCN(c2ccccc2)CC1)S(=O)(=O)c1cccc2cnccc12 (stereo not given)	y
COc1ccc2c(c1)c(C1=C(c3c[nH]c4ccccc34)C(=O)NC1=O)cn2CCCN(C)C	y
CN1CCN2c3ncccc3Cc3ccccc3C2C1 (stereo not given)	n
NS(=O)(=O)c1ccc(Nc2nc(OCC3CCCCC3)c3[nH]cnc3n2)cc1	y
COc1cccc(OC)c1-c1cc(C(=O)NC2(C(=O)O)C3CC4CC(C3)CC2C4)nn1-c1ccnc2cc(Cl)ccc12 (stereo not given)	n
